System: blood coagulation
Experiment: PT and aPTT assay in cynomolgus monkeys (Example 45)
Type: in vivo
Details: day 57; escalating dose regimen; platelet poor plasma
# reported PT ratio (INR); entries follow
MEASURE NAME: PT ratio (INR)

[[record]]
substance = "ISIS 417002: MOE gapmer, nucleobases 1275 to 1318 of SEQ ID NO: 1 (Table 8) (antisense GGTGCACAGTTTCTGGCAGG; MOE gapmer, wing and gap sizes not given here)"
reported_measurement = 1.03

[[record]]
substance = "ISIS 416858: MOE gapmer, nucleobases 1275 to 1318 of SEQ ID NO: 1 (Table 8) (antisense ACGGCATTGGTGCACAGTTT; MOE gapmer, wing and gap sizes not given here)"
reported_measurement = 1.09

[[record]]
substance = "ISIS 416850: MOE gapmer, nucleobases 1275 to 1318 of SEQ ID NO: 1 (Table 8) (antisense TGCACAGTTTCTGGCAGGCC; MOE gapmer, wing and gap sizes not given here)"
reported_measurement = 1.04

[[record]]
substance = "ISIS 416838: MOE gapmer, nucleobases 1018 to 1042 of SEQ ID NO: 1 (Table 6) (antisense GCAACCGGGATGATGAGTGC; MOE gapmer, wing and gap sizes not given here)"
reported_measurement = 1.04

[[record]]
substance = "ISIS 416864: MOE gapmer, nucleobases 1275 to 1318 of SEQ ID NO: 1 (Table 8) (antisense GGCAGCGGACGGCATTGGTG; MOE gapmer, wing and gap sizes not given here)"
reported_measurement = 1.08


// provenance: patent US20230263822A1
